experiment: Stability in pH2 buffered solution; type: physicochemical; conditions: pH2 phosphate buffer, 40° C., 0 hr
For each record, write down the corresponding Stability at pH2, 0 hr.
Provide the measurement as a number trailed by its unit.

COC(=O)OC[C@H]1O[C@@](C#N)(c2ccc3c(N)ncnn23)[C@H](OC(C)=O)[C@@H]1OC(C)=O ... 100.0 % AN
CCOC(=O)OC[C@H]1O[C@@](C#N)(c2ccc3c(N)ncnn23)[C@H](OC(C)=O)[C@@H]1OC(C)=O ... 100.0 % AN

State the recorded Stability at pH2, 0 hr for every item in the following list.
1. CC(C)OC(=O)OC[C@H]1O[C@@](C#N)(c2ccc3c(N)ncnn23)[C@H](O)[C@@H]1O
2. CC(C)OC(=O)OC[C@H]1O[C@@](C#N)(c2ccc3c(N)ncnn23)[C@H](OC(=O)C(C)C)[C@@H]1OC(=O)C(C)C

Return:
["98.5 % AN", "100.0 % AN"]

---

Please go through the items and note down their DM Caco2 B to A.
tested on: Caco-2 cells (clone C2BBe1); experiment: CACO-2 permeability; format: in vitro ADME; parameters: unit not given here; settings: basolateral to apical
One number for each entry.

CCCCCCCCCCOC(=O)OC[C@H]1O[C@@](C#N)(c2ccc3c(N)ncnn23)[C@H](O)[C@@H]1O ... 7.35
N#CCC1(COC(=O)OC[C@H]2O[C@@](C#N)(c3ccc4c(N)ncnn34)[C@H](O)[C@@H]2O)CC1 ... 1.91
COc1ccc(OC(=O)OC[C@H]2O[C@@](C#N)(c3ccc4c(N)ncnn34)[C@H](O)[C@@H]2O)cc1 ... 11.22

Continue with the next molecule.
The recorded DM Caco2 B to A with Caco-2 cells (clone C2BBe1) for COC(=O)[C@H]([C@@H](C)OC(=O)OC[C@H]1O[C@@](C#N)(c2ccc3c(N)ncnn23)[C@H](O)[C@@H]1O)N(C)C was 4.2

---

Please respond with reported Sol pH 7 for every item in the list.
assay: Thermodynamic solubility in pH7 buffered solution; conditions: 50 mM phosphate buffer pH7, 150 mM NaCl, ambient temperature, 24 hours
Give bare numbers.

Use the examples below as a reference point.
CC(C)OC(=O)Nc1ncnn2c([C@]3(C#N)O[C@H](COC(=O)OC(C)(C)C)[C@@H](O)[C@H]3O)ccc12 [Compound 63] ... 0.82
N#C[C@@]1(c2ccc3c(N)ncnn23)O[C@H](COC(=O)OCc2ccccc2)[C@@H](O)[C@H]1O [Compound 13] ... 0.12
CC(C)(OC(=O)OC[C@H]1O[C@@](C#N)(c2ccc3c(N)ncnn23)[C@H](O)[C@@H]1O)c1ccncc1 [Compound 49] ... 2.03

Field: Sol pH 7. Fill in for each record below.
1. CC(=O)O[C@H]1[C@@H](OC(C)=O)[C@](C#N)(c2ccc3c(N)ncnn23)O[C@@H]1COC(=O)OC(C)(C)c1ccncc1 [Compound 79]
2. COCC(C)(C)OC(=O)OC[C@H]1O[C@@](C#N)(c2ccc3c(N)ncnn23)[C@H](O)[C@@H]1O [Compound 96]

Return:
0.26
1.25

Hi, could you look up Sol pH 7 for each item in my list?
1. CC12CCC(C1)C(C)(C)C2OC(=O)OC[C@H]1O[C@@](C#N)(c2ccc3c(N)ncnn23)[C@H](O)[C@@H]1O (mixture of isomers) [Compound 48]
2. CC(C)C(=O)O[C@H]1[C@@H](OC(=O)C(C)C)[C@](C#N)(c2ccc3c(N)ncnn23)O[C@@H]1COC(=O)OC(C)(C)C [Compound 58]
3. CCOC(=O)OC[C@H]1O[C@@](C#N)(c2ccc3c(N)ncnn23)[C@H](O)[C@@H]1O [Compound 6]
4. CC(C)OC(=O)OC[C@H]1O[C@@](C#N)(c2ccc3c(N)ncnn23)[C@H](OC(=O)OC(C)C)[C@@H]1OC(=O)OC(C)C [Compound 81]
5. CC(=O)O[C@H]1[C@@H](OC(C)=O)[C@](C#N)(c2ccc3c(N)ncnn23)O[C@@H]1COC(=O)OC(C)C [Compound 65]
6. CC(C)(C)OC(=O)OC[C@H]1O[C@@](C#N)(c2ccc3c(N)ncnn23)[C@H](O)[C@@H]1O [Compound 46]
7. CC(C)(OC(=O)OC[C@H]1O[C@@](C#N)(c2ccc3c(N)ncnn23)[C@H](O)[C@@H]1O)C(F)F [Compound 76]

Return:
[0.19, 0.02, 3.02, 0.06, 0.045, 0.45, 0.37]

Each molecule below has a recorded value; state its Sol pH 7.
1. CCC(CC)COC(=O)OC[C@H]1O[C@@](C#N)(c2ccc3c(N)ncnn23)[C@H](O)[C@@H]1O [Compound 15]
2. COC(=O)OC[C@H]1O[C@@](C#N)(c2ccc3c(N)ncnn23)[C@H](OC(C)=O)[C@@H]1OC(C)=O [Compound 128]

Return:
0.26
1.42

List the reported Sol pH 7 of each molecule below.
1. CCOC(=O)OC[C@H]1O[C@@](C#N)(c2ccc3c(N)ncnn23)[C@H](OC(=O)OCC)[C@@H]1OC(=O)OCC [Compound 106]
2. CCOC(=O)C(C)(C)OC(=O)OC[C@H]1O[C@@](C#N)(c2ccc3c(N)ncnn23)[C@H](O)[C@@H]1O [Compound 77]
3. COC(=O)[C@H]([C@@H](C)OC(=O)OC[C@H]1O[C@@](C#N)(c2ccc3c(N)ncnn23)[C@H](O)[C@@H]1O)N(C)C [Compound 78]
4. CC(C)OC(=O)OC[C@H]1O[C@@](C#N)(c2ccc3c(N)ncnn23)[C@H](OC(=O)C(C)C)[C@@H]1OC(=O)C(C)C [Compound 59]
5. CCOC(=O)[C@H](C)OC(=O)OC[C@H]1O[C@@](C#N)(c2ccc3c(N)ncnn23)[C@H](O)[C@@H]1O [Compound 97]
6. CCOC(=O)OC[C@H]1O[C@@](C#N)(c2ccc3c(N)ncnn23)[C@H](OC(C)=O)[C@@H]1OC(C)=O [Compound 129]

Return:
0.08
4.64
0.89
0.01
6.02
0.72

Would you mind listing Sol pH 7 for each of the following molecules?
1. COC(=O)OC[C@H]1O[C@@](C#N)(c2ccc3c(N)ncnn23)[C@H](OC(=O)OC)[C@@H]1OC(=O)OC [Compound 93]
2. CC(C)OC(=O)Nc1ncnn2c([C@]3(C#N)O[C@H](COC(=O)OC(C)C)[C@@H](OC(=O)OC(C)C)[C@H]3O)ccc12 [Compound 62]
3. CC1(C)[C@@H]2CC[C@@]1(C)[C@@H](OC(=O)OC[C@H]1O[C@@](C#N)(c3ccc4c(N)ncnn34)[C@H](O)[C@@H]1O)C2 [Compound 51]
4. CC1(OC(=O)OC[C@H]2O[C@@](C#N)(c3ccc4c(N)ncnn34)[C@H](O)[C@@H]2O)CCCCC1 [Compound 47]
5. CCC1O[C@H]2[C@@H](O1)[C@](C#N)(c1ccc3c(N)ncnn13)O[C@@H]2COC(=O)OC(C)C (stereo partly drawn) [Compound 133]
6. CC(C)OC(=O)Nc1ncnn2c([C@]3(C#N)O[C@H](COC(=O)OC(C)C)[C@@H](O)[C@H]3O)ccc12 [Compound 137]

Return:
[0.62, 0.1, 0.08, 0.1, 0.24, 0.13]

Sol pH 7 in this record for CC(C)OC(=O)OC[C@H]1O[C@@](C#N)(c2ccc3c(N)ncnn23)[C@H](O)[C@@H]1O [Compound 4] : 1.85

---

tested on: SARS Coronavirus 2 recombinant with NanoLuc (SARS-CoV2-NLuc) in A549-hACE2 cells; test: organism not typed; format: cell-based; settings: 48 h, read-out: SARS-CoV2 EC50
readout_name: pEC50
Answers are plain numbers, as −log10 of the molar value.

N#C[C@@]1(c2ccc3c(N)ncnn23)O[C@H](COC(=O)OC2CCCCCCC2)[C@@H](O)[C@H]1O ... 5.81

Please find the next compound below.
Lab book: pEC50 of CCC(C)(C)OC(=O)OC[C@H]1O[C@@](C#N)(c2ccc3c(N)ncnn23)[C@H](OC(=O)OC(C)(C)CC)[C@@H]1OC(=O)OC(C)(C)CC noted as 5.57

---

Please respond with reported STA Human Plasma 37 for every item in the list.
experiment: Plasma stability; type: in vitro ADME; set-up: unit not given here; conditions: 37° C., 2 μM substrate
Give bare numbers.

# count of solved cases: 4
CC1(OC(=O)OC[C@H]2O[C@@](C#N)(c3ccc4c(N)ncnn34)[C@H](O)[C@@H]2O)CCCC1 ... 77.644
CC(C)COC(=O)OC[C@H]1O[C@@](C#N)(c2ccc3c(N)ncnn23)[C@H](O)[C@@H]1O ... 28.434
C=CCCC(=O)O[C@H]1[C@@H](OC(=O)CCC=C)[C@](C#N)(c2ccc3c(N)ncnn23)O[C@@H]1COC(=O)OC(C)C ... 65.405
N#CC1(COC(=O)OC[C@H]2O[C@@](C#N)(c3ccc4c(N)ncnn34)[C@H](O)[C@@H]2O)CC1 ... 59.4

Parameters: items (list). Returns: STA Human Plasma 37 for each item.
1. CCC(CC)COC(=O)OC[C@H]1O[C@@](C#N)(c2ccc3c(N)ncnn23)[C@H](O)[C@@H]1O
2. CCOC(=O)OC[C@H]1O[C@@](C#N)(c2ccc3c(NC(=O)OCc4ccccc4)ncnn23)[C@H](O)[C@@H]1O
3. CCOC(=O)OC[C@H]1O[C@@](C#N)(c2ccc3c(N)ncnn23)[C@@H]2OC(CC)O[C@@H]21 (stereo partly shown)

Return:
1: 40.503; 2: 150.92; 3: 12.304
